// cross-source set; read-out = pKi; system = Coagulation factor XI (Homo sapiens)
pKi: −log10 of the molar value.
QUANTITY NAME: pKi

A. O=C(O)c1ccc(NC(=O)[C@@H](Cc2ccccc2)n2ccc(-c3cc(Cl)ccc3-n3cnnn3)cc2=O)cc1
B. COC(=O)N1CCC(CCC[C@@H](NS(=O)(=O)Cc2ccccc2)C(=O)N[C@@H](CCC2CCNCC2)C(=O)NCc2ccc(C(=N)N)cc2)CC1
C. COC(=O)Nc1ccc2c(c1)NC(=O)CCCCC(c1ccc(-c3cc(Cl)ccc3OC(F)F)c[n+]1[O-])c1nc-2c[nH]1 (single isomer, unassigned)
Ordering: ascending pKi. Answer format: the labels, ordered as requested.
B, A, C
